Give Emax for every item shown.
Target: human muscarinic M3 receptor (Homo sapiens, UniProt P20309)
Sequence (P20309 whole entry): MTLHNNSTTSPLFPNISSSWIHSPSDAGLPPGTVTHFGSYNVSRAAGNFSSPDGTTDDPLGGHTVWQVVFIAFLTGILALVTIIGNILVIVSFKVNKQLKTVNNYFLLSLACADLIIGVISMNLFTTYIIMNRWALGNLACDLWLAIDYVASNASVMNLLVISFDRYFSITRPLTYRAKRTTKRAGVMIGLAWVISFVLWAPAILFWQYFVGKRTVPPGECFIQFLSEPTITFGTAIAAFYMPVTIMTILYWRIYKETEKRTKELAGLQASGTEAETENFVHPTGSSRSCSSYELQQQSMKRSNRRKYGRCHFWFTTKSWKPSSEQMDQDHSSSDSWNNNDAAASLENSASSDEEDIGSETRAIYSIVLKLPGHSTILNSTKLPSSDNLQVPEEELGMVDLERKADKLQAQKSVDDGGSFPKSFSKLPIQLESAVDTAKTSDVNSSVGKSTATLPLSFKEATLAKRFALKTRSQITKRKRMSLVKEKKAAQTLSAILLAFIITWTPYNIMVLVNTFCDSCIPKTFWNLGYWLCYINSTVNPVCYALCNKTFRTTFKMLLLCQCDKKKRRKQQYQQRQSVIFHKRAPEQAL
Assay: Alphascreen Surefire phospho-ERK1/2 functional assay, M3
Settings: CHO, read-out: % Emax cf. ACh, M3, CHO cells stably expressing human M3; relative to ACh

{"molecule": "CCOC(=O)N1CCC2(CC(N3CCC([C@@H]4CCCN4C(=O)OCc4ccccn4)CC3)C2)C1 (single isomer, unassigned) [2-64 Isomer 2]", "system-tested": "human muscarinic M3 receptor (Homo sapiens, UniProt P20309)", "Emax": "8%"}
{"molecule": "CCOC(=O)N1CCC2(CC(N3CCC(N4CCCNC4=O)CC3)C2)C1 (single isomer, unassigned) [4-8 Isomer 1]", "system-tested": "human muscarinic M3 receptor (Homo sapiens, UniProt P20309)", "Emax": "8%"}
{"molecule": "CCOC(=O)N1CCC2(CC(N3CCC([C@@H]4C[C@H](F)CN4C(=O)CC)CC3)C2)C1 (single isomer, unassigned) [2-59 Isomer 2]", "system-tested": "human muscarinic M3 receptor (Homo sapiens, UniProt P20309)", "Emax": "7%"}
{"molecule": "CCOC(=O)N1CCC2(CC(N3CCC(c4c(C)cnn4C)CC3)C2)C1 (single isomer, unassigned) [1-58 Isomer 2]", "system-tested": "human muscarinic M3 receptor (Homo sapiens, UniProt P20309)", "Emax": "2%"}
{"molecule": "CCOC(=O)N1CCC2(CC(N3CCC([C@@H]4CCCN4C(=O)N(C)CC(F)(F)F)CC3)C2)C1 (single isomer, unassigned) [2-55 Isomer 2]", "system-tested": "human muscarinic M3 receptor (Homo sapiens, UniProt P20309)", "Emax": "12%"}

# next molecule below
Q: Item CCOC(=O)N1CCC2(CC(N3CCC([C@@H]4CCCN4C(=O)N4CCCC4)CC3)C2)C1 (single isomer, unassigned) [2-32 Isomer 2] has what recorded Emax?
A: 11%
